- Test system: Saccharomyces cerevisiae BY4741 SeMeCo community
- Assay Overview: z-score of subpopulation abundance vs DMSO median, subpopulation auxotrophic for UM; higher = larger share of this subpopulation than in DMSO controls
- Measurement Context: 10 µM; 24 h; SM minimal medium; subpopulation (auxotrophy): UM
Counter-ions that a name gives are not always drawn.
Give measured z-score of subpopulation abundance for each item. Keep answers brief.

Please go through the list and note z-score of subpopulation abundance for each compound.
1. O=C(Cn1cnnn1)N[C@@H]1C(=O)N2C(C(=O)O)=C(CSc3nncs3)CS[C@H]12 [Ceftezole sodium]
2. CCCCOC(=O)c1ccc(O)cc1 [Butylparaben]
3. CC(=O)OCC(COC(C)=O)OC(C)=O [Triacetin]
4. N#CC(c1ccc(Cl)cc1)c1c(Cl)cc(-n2ncc(=O)[nH]c2=O)cc1Cl (stereo not given) [Diclazuril]
5. Cc1onc(-c2c(Cl)cccc2Cl)c1C(=O)N[C@@H]1C(=O)N2[C@@H]1SC(C)(C)[C@@H]2C(=O)O [Dicloxacillin Sodium]
6. O=C(O[C@H]1CN2CCC1CC2)N1CCc2ccccc2[C@@H]1c1ccccc1 [Solifenacin succinate]
7. COC(=O)C1=C(C)NC(C)=C(C(=O)OCCN(C)Cc2ccccc2)C1c1cccc([N+](=O)[O-])c1 (stereo not given) [Nicardipine HCl]
8. COc1ccc2cc([C@H](C)C(=O)O)ccc2c1 [Naproxen Sodium]

Result:
0.35
-1.24
-0.42
-1.39
-0.45
1.06
0.26
-2.49

Respectfully, I request z-score of subpopulation abundance for each entry included below.
1. C[C@]12CCC(=O)C=C1[C@@H]1C[C@@H]1[C@H]1[C@@H]3[C@@H]4C[C@@H]4[C@@]4(CCC(=O)O4)[C@@]3(C)CC[C@@H]12 [Drospirenone]
2. Cc1c(OCC(F)(F)F)ccnc1C[S+]([O-])c1nc2ccccc2[nH]1 (stereo not given) [Lansoprazole]
3. CCN1CCCC1CNC(=O)c1cc(S(=O)(=O)CC)c(N)cc1OC (stereo not given) [Amisulpride]
4. CCc1nc(N)nc(N)c1-c1ccc(Cl)cc1 [Pyrimethamine]
5. CC1CCc2cc(F)cc3c(=O)c(C(=O)O)cn1c23 (stereo not given) [Flumequine]
6. CO/N=C(\C(=O)N[C@@H]1C(=O)N2C(C(=O)O)=C(CSC(=O)c3ccco3)CS[C@H]12)c1csc(N)n1 [Ceftiofur HCl]
7. CCN1CCCC1CNC(=O)c1cc(S(N)(=O)=O)ccc1OC (stereo not given) [Sulpiride]

Result:
-0.14
-1.1
0.04
-0.1
-1.16
1.05
-0.33

Provenance of the data: the supplement of paper PMC8975748
